Target: BMPR2 (Homo sapiens)
Construct: endogenous in cells
Sequence (Q13873 27-1038): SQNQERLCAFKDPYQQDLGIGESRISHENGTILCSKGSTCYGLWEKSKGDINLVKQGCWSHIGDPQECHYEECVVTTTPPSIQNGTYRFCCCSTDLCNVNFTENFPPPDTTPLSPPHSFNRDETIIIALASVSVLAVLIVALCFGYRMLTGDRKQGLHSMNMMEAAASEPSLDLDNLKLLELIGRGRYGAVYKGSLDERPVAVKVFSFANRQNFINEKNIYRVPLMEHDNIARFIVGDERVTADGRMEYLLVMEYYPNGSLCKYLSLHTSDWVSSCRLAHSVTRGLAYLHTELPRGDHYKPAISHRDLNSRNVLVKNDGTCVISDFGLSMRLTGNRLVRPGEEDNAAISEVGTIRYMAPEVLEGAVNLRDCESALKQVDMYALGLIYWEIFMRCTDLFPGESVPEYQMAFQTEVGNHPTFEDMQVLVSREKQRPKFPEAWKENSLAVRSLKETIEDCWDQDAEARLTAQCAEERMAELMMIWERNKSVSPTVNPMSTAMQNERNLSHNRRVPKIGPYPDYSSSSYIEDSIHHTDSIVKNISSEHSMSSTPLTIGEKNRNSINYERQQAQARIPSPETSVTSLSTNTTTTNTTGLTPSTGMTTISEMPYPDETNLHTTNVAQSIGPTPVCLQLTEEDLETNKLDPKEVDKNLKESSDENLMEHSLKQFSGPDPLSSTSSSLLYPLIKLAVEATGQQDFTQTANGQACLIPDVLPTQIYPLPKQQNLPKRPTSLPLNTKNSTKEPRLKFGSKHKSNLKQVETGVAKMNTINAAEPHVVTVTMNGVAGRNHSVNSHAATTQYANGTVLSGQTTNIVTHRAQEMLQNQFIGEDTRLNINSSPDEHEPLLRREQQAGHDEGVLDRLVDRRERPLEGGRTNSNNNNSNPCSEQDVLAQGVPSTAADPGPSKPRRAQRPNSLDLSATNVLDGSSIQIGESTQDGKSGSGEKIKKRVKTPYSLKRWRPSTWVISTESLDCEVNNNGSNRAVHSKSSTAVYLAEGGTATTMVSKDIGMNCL
Assay: KAM-matrix competition in K562 lysate
Settings: KAM 0.001-10 uM, read-out: RB50 (the source's name)
valueKind: IC50 (µM)
# unit: µM | format: bare number

Consider the compound `N#CCc1ccc(Nc2nc(NCCCN)cc(Nc3cc(C4CC4)[nH]n3)n2)cc1` and give its recorded IC50.
6.67

----------
biological target: MAP2K2 (Homo sapiens); construct: endogenous in cells; experiment: KAM-matrix competition in K562 lysate; conditions: read-out: RB50 (the source's name)
Sequence (P36507 whole entry): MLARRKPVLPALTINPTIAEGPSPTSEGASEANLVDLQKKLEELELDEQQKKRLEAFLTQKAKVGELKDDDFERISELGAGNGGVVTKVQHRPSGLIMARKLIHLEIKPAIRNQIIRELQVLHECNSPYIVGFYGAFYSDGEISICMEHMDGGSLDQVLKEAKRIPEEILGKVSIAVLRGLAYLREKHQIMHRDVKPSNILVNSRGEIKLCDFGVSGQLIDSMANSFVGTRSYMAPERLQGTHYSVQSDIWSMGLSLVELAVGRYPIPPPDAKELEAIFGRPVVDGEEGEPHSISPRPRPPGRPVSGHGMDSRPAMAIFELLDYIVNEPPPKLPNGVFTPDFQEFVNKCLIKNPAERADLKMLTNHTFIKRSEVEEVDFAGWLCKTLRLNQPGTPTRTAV
valueKind: IC50 (µM)
# unit: µM | format: bare number

Consider the compound N#CCc1ccc(Nc2nc(NCCCN)cc(Nc3cc(C4CC4)[nH]n3)n2)cc1 [KAM] and give its recorded IC50.
0.36

----------
test: KAM-matrix competition in K562 lysate; type: binding, human; conditions: read-out: RB50 (the source's name)
valueKind: pIC50
Notebook: values listed as pIC50 are -log10 of the concentration (mol/L).

Consider the molecule `N#CCc1ccc(Nc2nc(NCCCN)cc(Nc3cc(C4CC4)[nH]n3)n2)cc1` and give its recorded pIC50.
6.36

----------
biological target: CDK2 (Homo sapiens); construct: endogenous in cells; test: KAM-matrix competition in K562 lysate; settings: read-out: RB50 (the source's name)
valueKind: pIC50
Notebook: values listed as pIC50 are -log10 of the concentration (mol/L).

Consider the molecule `N#CCc1ccc(Nc2nc(NCCCN)cc(Nc3cc(C4CC4)[nH]n3)n2)cc1` and give its recorded pIC50.
6.75

----------
target: ATR (Homo sapiens, UniProt Q13535); construct: endogenous in cells; host or cells: K562; assay: Imatinib-matrix competition in K562 lysate; assay type: binding; settings: read-out: RB50 (the source's name)
pIC50: −log10 of the molar value.
valueKind: pIC50

System ATR (Homo sapiens, UniProt Q13535). Read-out pIC50. Item Cc1ccc(NC(=O)c2ccc(CN3CCN(C)CC3)cc2)cc1Nc1nccc(-c2cccnc2)n1 [Imatinib] . Report value.
< 5.00

----------
molecular target: MYO3A (Homo sapiens, UniProt Q8NEV4); construct: endogenous in cells; assay: KAM-matrix competition in K562 lysate; conditions: KAM 0.001-10 uM, read-out: RB50 (the source's name)
Sequence (Q8NEV4 whole entry): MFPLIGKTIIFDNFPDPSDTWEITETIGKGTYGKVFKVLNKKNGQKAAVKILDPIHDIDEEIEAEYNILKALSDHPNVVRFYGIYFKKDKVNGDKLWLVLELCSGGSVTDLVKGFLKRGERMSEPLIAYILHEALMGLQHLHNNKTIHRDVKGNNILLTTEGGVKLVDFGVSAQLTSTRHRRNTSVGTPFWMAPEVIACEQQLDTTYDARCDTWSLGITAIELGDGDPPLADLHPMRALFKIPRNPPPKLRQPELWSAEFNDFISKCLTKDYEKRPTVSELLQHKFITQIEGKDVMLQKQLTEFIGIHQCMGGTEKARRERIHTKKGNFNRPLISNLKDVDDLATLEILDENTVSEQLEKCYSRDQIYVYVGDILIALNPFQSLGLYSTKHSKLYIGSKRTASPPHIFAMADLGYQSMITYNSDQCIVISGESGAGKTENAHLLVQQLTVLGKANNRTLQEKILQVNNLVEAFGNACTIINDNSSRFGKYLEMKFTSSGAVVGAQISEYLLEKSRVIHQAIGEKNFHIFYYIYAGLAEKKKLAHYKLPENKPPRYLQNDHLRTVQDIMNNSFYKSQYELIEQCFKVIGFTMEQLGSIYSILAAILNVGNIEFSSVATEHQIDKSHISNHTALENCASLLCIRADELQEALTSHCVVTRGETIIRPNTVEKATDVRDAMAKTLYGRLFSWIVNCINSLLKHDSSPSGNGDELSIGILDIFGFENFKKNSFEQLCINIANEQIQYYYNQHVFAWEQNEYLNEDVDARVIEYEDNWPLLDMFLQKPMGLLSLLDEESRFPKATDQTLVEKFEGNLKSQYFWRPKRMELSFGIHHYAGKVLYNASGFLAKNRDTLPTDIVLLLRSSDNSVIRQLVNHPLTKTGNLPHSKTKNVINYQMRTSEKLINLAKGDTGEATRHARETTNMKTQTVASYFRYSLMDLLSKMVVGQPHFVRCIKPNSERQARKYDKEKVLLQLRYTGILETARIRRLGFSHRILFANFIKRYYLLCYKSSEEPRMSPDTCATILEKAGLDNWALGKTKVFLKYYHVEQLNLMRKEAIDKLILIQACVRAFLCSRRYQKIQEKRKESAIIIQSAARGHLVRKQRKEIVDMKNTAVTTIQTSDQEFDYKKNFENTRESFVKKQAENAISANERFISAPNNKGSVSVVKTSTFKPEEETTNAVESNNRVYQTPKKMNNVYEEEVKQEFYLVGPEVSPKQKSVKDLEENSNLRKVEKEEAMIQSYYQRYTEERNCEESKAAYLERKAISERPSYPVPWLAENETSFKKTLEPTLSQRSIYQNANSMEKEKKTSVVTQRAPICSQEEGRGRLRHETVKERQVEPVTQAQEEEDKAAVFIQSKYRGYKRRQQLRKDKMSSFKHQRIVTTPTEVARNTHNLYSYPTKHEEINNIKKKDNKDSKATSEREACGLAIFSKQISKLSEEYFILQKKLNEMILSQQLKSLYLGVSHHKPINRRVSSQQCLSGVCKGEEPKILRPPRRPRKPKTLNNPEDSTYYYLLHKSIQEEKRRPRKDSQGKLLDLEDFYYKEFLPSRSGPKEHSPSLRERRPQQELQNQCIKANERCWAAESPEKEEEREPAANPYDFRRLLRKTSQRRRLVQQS
pIC50: −log10 of the molar value.
valueKind: pIC50

Consider the compound `N#CCc1ccc(Nc2nc(NCCCN)cc(Nc3cc(C4CC4)[nH]n3)n2)cc1` and give its recorded pIC50.
< 5.00

----------
molecular target: CDK7 (Homo sapiens); construct: endogenous in cells; assay: KAM-matrix competition in K562 lysate; settings: read-out: RB50 (the source's name)
Sequence (P50613 2-346 limits assumed): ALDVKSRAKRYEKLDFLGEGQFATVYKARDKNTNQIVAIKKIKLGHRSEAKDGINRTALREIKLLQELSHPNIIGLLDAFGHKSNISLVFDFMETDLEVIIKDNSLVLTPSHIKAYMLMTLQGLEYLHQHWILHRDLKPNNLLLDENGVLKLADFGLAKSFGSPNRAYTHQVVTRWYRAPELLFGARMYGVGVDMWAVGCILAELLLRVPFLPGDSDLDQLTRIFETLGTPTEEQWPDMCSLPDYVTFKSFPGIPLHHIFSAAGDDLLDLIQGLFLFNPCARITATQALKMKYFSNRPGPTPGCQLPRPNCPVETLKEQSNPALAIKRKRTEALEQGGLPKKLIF
Sequence (P51946 whole entry partner): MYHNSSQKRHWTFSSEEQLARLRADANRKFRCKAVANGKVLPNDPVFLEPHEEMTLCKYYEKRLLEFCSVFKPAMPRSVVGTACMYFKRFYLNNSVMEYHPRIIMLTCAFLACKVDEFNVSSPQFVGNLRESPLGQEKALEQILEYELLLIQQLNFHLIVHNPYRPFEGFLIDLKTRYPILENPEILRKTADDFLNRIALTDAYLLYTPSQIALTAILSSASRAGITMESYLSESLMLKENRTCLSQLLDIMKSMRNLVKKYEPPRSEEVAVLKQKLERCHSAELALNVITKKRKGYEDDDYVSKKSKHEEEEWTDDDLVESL
Sequence (P51948 whole entry partner): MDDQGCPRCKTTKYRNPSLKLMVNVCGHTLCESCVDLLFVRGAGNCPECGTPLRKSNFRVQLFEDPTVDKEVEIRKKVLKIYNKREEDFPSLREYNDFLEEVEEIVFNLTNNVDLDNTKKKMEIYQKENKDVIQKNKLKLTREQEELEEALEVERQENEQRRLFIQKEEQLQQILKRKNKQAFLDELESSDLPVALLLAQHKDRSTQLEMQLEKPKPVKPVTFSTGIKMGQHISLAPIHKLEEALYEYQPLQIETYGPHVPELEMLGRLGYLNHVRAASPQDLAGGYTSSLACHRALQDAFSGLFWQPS
valueKind: pIC50
Notebook: values listed as pIC50 are -log10 of the concentration (mol/L).

Consider the compound `N#CCc1ccc(Nc2nc(NCCCN)cc(Nc3cc(C4CC4)[nH]n3)n2)cc1` and give its recorded pIC50.
5.78

----------
target: LATS2 (Homo sapiens, UniProt Q9NRM7); construct: endogenous in cells; experiment: KAM-matrix competition in K562 lysate; settings: read-out: RB50 (the source's name)
Sequence (Q9NRM7 whole entry): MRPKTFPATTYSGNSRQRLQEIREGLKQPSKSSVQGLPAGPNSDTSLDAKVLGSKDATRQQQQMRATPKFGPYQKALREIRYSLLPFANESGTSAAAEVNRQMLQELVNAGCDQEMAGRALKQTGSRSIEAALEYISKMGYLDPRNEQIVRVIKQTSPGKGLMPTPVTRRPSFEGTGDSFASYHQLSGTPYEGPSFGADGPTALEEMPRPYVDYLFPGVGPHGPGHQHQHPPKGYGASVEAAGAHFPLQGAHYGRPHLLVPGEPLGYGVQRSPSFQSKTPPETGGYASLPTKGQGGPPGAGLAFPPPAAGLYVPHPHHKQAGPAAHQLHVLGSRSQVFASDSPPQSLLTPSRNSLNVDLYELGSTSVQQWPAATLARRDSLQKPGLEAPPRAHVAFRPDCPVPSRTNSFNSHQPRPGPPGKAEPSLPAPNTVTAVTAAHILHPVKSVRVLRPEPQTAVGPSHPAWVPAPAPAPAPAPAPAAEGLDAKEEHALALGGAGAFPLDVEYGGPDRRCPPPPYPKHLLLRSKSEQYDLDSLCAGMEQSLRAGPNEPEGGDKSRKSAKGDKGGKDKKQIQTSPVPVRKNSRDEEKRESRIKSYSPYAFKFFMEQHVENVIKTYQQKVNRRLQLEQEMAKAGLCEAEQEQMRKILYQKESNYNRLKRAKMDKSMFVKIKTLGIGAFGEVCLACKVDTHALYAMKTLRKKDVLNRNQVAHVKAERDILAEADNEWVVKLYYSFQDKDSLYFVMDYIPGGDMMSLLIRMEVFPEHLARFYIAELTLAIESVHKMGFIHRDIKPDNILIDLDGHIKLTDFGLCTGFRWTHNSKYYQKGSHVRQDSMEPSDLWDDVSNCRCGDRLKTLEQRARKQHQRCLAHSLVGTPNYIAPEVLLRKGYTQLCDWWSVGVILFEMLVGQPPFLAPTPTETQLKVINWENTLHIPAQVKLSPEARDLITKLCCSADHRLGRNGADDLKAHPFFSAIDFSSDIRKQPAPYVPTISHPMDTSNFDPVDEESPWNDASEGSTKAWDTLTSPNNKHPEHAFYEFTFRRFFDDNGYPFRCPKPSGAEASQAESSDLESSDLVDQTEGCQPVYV
valueKind: IC50 (nM)
# unit: nM | format: bare number

Consider the compound `N#CCc1ccc(Nc2nc(NCCCN)cc(Nc3cc(C4CC4)[nH]n3)n2)cc1` and give its recorded IC50.
251

----------
biological target: DYRK1A (Homo sapiens); construct: endogenous in cells; assay: KAM-matrix competition in K562 lysate; details: read-out: RB50 (the source's name)
valueKind: IC50 (nM)
# unit: nM | format: bare number

Consider the compound N#CCc1ccc(Nc2nc(NCCCN)cc(Nc3cc(C4CC4)[nH]n3)n2)cc1 [KAM] and give its recorded IC50.
1470

----------
Molecular target: ADCK1 (Homo sapiens)
Construct: endogenous in cells
Sequence (Q86TW2 1-530): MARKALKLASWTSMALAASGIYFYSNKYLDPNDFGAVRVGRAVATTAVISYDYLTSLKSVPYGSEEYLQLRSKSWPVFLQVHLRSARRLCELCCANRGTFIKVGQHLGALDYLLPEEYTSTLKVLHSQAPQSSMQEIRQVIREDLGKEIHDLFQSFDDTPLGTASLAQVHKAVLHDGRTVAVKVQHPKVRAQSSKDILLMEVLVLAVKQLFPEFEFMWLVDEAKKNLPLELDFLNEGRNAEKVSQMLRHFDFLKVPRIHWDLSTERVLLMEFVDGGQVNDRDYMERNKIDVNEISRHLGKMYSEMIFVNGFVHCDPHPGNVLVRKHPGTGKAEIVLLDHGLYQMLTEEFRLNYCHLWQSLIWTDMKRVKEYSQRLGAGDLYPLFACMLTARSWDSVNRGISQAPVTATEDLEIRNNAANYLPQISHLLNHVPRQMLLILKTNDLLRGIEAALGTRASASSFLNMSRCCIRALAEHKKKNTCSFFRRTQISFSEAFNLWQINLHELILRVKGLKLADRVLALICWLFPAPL
Experiment: KAM-matrix competition in K562 lysate
Settings: KAM 0.001-10 uM, read-out: RB50 (the source's name)
valueKind: IC50

Consider the compound `N#CCc1ccc(Nc2nc(NCCCN)cc(Nc3cc(C4CC4)[nH]n3)n2)cc1` and give its recorded IC50.
> 10 µM

----------
biological target: EPHB6 (Homo sapiens, UniProt O15197); construct: endogenous in cells; experiment: KAM-matrix competition in K562 lysate; conditions: read-out: RB50 (the source's name)
valueKind: IC50 (nM)
# unit: nM | format: bare number

System EPHB6 (Homo sapiens, UniProt O15197). Read-out IC50. Item `N#CCc1ccc(Nc2nc(NCCCN)cc(Nc3cc(C4CC4)[nH]n3)n2)cc1` . Report value.
2510

----------
target: ATM (Homo sapiens, UniProt Q13315); assay: KAM-matrix competition in K562 lysate; type: binding; design: endogenous in cells; host or cells: K562; conditions: KAM 0.001-10 uM, read-out: RB50 (the source's name)
pIC50: −log10 of the molar value.
valueKind: pIC50

Consider the compound N#CCc1ccc(Nc2nc(NCCCN)cc(Nc3cc(C4CC4)[nH]n3)n2)cc1 [KAM] and give its recorded pIC50.
< 5.00

----------
target: RPS6KA1 (Homo sapiens, UniProt Q15418); construct: endogenous in cells; experiment: KAM-matrix competition in K562 lysate; conditions: KAM 0.001-10 uM, read-out: RB50 (the source's name)
pIC50: −log10 of the molar value.
valueKind: pIC50

Consider the molecule N#CCc1ccc(Nc2nc(NCCCN)cc(Nc3cc(C4CC4)[nH]n3)n2)cc1 [KAM] and give its recorded pIC50.
< 5.00

----------
target: RIOK2 (Homo sapiens); construct: endogenous in cells; test: KAM-matrix competition in K562 lysate; conditions: read-out: RB50 (the source's name)
Sequence (Q9BVS4 whole entry): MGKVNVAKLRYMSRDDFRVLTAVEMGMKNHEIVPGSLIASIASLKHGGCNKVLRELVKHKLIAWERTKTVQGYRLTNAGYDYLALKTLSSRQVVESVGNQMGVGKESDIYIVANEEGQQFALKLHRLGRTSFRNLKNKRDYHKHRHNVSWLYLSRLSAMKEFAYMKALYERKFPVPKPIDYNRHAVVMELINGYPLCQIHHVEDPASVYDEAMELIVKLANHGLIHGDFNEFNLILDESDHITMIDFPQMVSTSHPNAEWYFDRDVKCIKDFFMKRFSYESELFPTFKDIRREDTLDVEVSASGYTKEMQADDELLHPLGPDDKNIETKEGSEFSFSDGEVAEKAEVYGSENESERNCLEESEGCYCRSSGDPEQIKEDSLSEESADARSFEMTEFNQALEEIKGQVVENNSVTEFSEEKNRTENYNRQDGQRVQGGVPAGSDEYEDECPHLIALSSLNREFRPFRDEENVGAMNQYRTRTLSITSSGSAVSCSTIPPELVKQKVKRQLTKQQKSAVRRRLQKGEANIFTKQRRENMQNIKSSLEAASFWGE
valueKind: pIC50
Notebook: values listed as pIC50 are -log10 of the concentration (mol/L).

Consider the compound `N#CCc1ccc(Nc2nc(NCCCN)cc(Nc3cc(C4CC4)[nH]n3)n2)cc1` and give its recorded pIC50.
6.11
